# maps each entry to its pIC50
Target: Axl (Homo sapiens (Human), UniProt P30530)
Sequence (P30530 26-894): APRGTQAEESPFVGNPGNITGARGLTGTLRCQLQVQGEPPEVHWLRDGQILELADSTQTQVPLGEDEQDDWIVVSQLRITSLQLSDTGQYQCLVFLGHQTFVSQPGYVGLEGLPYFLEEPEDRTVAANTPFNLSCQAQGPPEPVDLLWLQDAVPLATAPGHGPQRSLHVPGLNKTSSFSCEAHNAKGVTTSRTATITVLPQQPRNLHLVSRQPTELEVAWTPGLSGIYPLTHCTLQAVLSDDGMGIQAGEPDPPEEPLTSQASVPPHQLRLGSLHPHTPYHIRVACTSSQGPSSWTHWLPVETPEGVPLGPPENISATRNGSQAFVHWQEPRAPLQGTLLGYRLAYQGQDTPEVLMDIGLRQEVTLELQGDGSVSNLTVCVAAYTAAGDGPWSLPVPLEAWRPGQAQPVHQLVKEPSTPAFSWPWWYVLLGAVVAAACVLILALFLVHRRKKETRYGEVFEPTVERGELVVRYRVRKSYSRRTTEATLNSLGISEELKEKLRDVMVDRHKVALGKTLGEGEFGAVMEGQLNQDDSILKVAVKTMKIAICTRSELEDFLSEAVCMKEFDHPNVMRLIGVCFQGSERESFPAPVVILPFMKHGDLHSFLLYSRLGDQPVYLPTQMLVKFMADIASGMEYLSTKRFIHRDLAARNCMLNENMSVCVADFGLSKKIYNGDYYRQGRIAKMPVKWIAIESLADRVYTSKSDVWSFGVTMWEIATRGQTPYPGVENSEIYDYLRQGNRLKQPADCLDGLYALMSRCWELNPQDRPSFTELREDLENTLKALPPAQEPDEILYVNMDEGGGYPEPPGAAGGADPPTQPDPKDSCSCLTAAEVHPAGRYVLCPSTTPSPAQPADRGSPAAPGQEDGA
Assay: Axl binding assay
pIC50: −log10 of the molar value.

*Q* # value lookup — system Axl (Homo sapiens (Human), UniProt P30530), readout pIC50, item COc1cc2nccc(Oc3ccc(NC(=O)c4ccco4)cc3)c2cc1OC [Ref3, reference compound]
*A* < 5.00

* * *

Biological target: Axl (Homo sapiens (Human))
Experiment: Axl binding assay
Details: listed as compound 71
pIC50: −log10 of the molar value.
readout-name: pIC50

*Q* Tell me the measured pIC50 of COc1cc2nccc(Oc3ccc(NC(=O)c4ccncc4)cc3)c2cc1OC [Ref5, reference compound] , please.
*A* ≤ 5.00

* * *

Target: UniProtKB P30530
Experiment: Cellular Axl phosphorylation assay
Assay type: cell-based
Settings: HEK293 cells transfected with Axl cDNA, 1 hour incubation
pIC50: −log10 of the molar value.
readout-name: pIC50

Below, each entry is followed by its recorded pIC50 result.
CCOc1oc(-c2ccc(F)cc2)nc1C(=O)Nc1ccc(Oc2ccnc3cc(OCCCN)c(OC)cc23)c(F)c1 ... > 6.30
COc1cc2c(Oc3ccc(NC(=O)c4nn(-c5ccc(F)cc5)cc4OCC4CCN(C)C4)cc3F)ccnc2cc1OCCCN1CCNCC1 (stereo not shown) ... 5.30 to 6.30
CCOc1cn(-c2ccc(F)cc2)nc1C(=O)Nc1ccc(Oc2ccnc3cc(OC)c(OC)cc23)cc1 ... > 6.30

Here's the next entry for you.
*Q* Suppose we examine the compound `COc1cc2c(Oc3ccc(NC(=O)c4nn(C)cc4Br)cc3F)ccnc2cc1OCCCN1CCOCC1` ; what pIC50 value has been reported?
*A* > 6.30

* * *

Here, each record is paired with measured IC50 data.
Molecular target: Axl (Homo sapiens (Human), UniProt P30530)
Experiment: Cellular Axl phosphorylation assay
Assay type: cell-based
Conditions: HEK293 cells transfected with Axl cDNA, 1 hour incubation
Structures can show the parent of a compound that is named as a salt.

Sample records with IC50:
CCOc1cn(-c2ccc(F)cc2C)nc1C(=O)Nc1ccc(Oc2ccnc3cc(OC)c(OC)cc23)cc1C [Example 95] ... 500 to 5000 nM
CCOc1cn(-c2ccc(F)cc2C)nc1C(=O)Nc1ccc(Oc2ccnc3cc(OCC4CCNCC4)c(OC)cc23)c(F)c1 [Example 74] ... < 500 nM
CCOc1cn(-c2ccc(F)cc2C)nc1C(=O)Nc1ccc(Oc2ccnc3cc(OC)c(OC)cc23)c(Cl)c1 [Example 35] ... < 500 nM
CCOc1cn(-c2ccc(F)cc2C)nc1C(=O)Nc1ccc(Oc2ccnc3cc(OCCCN4CCN(C)CC4)c(OC)cc23)c(F)c1 [Example 57] ... < 500 nM
COc1cc2nccc(Oc3ccc(NC(=O)c4ccn(COCC(F)(F)F)n4)cc3F)c2cc1OC [Example 15] ... < 500 nM

*Q* Record request: IC50 value, item COc1cc2c(Oc3ccc(NC(=O)c4nn(-c5ccc(F)cc5)cc4OCC4CC4)cc3F)ccnc2cc1OCCCN1CCNCC1 [Example 64, trifluoroacetic acid salt]
*A* < 500 nM

* * *

Measured IC50 of individual entries
Target: Axl (Homo sapiens (Human), UniProt P30530)
Experiment: Axl binding assay

Worked examples follow.
COc1cc2nccc(Oc3ccc(NC(=O)c4nn(-c5ccc(F)cc5)cc4OC(C)C)cc3Cl)c2cc1OC [Example 33] ... < 0.5 µM
COc1cc2c(Oc3ccc(NC(=O)c4nn(-c5ccc(F)cc5)cc4OCC4CCN(C)C4)cc3F)ccnc2cc1OCCCN1CCNCC1 (stereo not shown) [Example 71] ... < 0.5 µM
COc1cc2nccc(Oc3ccc(NC(=O)c4cnn(-c5ccccc5)c4C(F)(F)F)cc3F)c2cc1OC [Ref1, reference compound] ... > 10 µM

*Q* Param item = `COc1cc2nccc(Oc3ccc(N)nc3)c2cc1OC` ; retrieve measured IC50.
*A* > 10 µM

*Q* Data request, read-out IC50, for CCOc1cn(-c2ccc(F)c(OC)c2)nc1C(=O)Nc1ccc(Oc2ccnc3cc(OC)c(OC)cc23)cn1 [Example 97]
*A* < 0.5 µM

*Q* May I ask what IC50 has been recorded for COc1cc2nccc(Oc3ccc(NC(=O)c4cc(-c5ccccc5)on4)cc3F)c2cc1OC [Ref2, reference compound] ?
*A* > 10 µM

*Q* Please give the measured IC50 for this compound: CCCn1ccc(C(=O)Nc2ccc(Oc3ccnc4cc(OC)c(OC)cc34)c(F)c2)n1 [Example 13]
*A* 0.5 to 5 µM
